ASSAY: qHTS for Inhibitors of Cell Surface uPA Generation: FP59 Counterscreen for Cherry-picked Compounds
SETTINGS: FP59 anthrax toxin cytotoxicity counterscreen, cells; series mostly up to 115 µM
Inconclusive results are not listed. Activity calls are given as the source filed them. Calls follow the shape of the dose curve; as a rule, active = well fitted activation curve with a large enough effect; inconclusive = small, poorly fitted or top-dose-only effect; inactive = flat fitted curve, though single readings scatter.
PARAMETER: outcome

A selection of reference data follows.
Cc1ccc(C2=NS(=O)(=O)N(C)C(C(=O)NC3CCCC3)=C2)cc1 | inactive
COc1ccc(C(=O)NCC(=O)N/N=C/c2c(C)[nH]c3ccccc23)cc1 | inactive
COc1ccc(S(=O)(=O)N2CCOCC2)cc1NC(=O)CN1C(=O)NC2(CCCC2)C1=O | inactive
COc1ccc(C(=O)OCC(=O)N(C)C2CCS(=O)(=O)C2)cc1S(=O)(=O)N(C)Cc1ccccc1 (stereo not given) | inactive
O=C(NCCCn1cccn1)C1CCC(=O)N(Cc2ccccc2F)C1 (stereo not given) | inactive

Exercise: Look up outcome of "CC(=O)Oc1ccc(OC(C)=O)c(SCCCCCCl)c1" and report it.
Key: inactive

Exercise: Look up outcome of "O=C(C[C@H]1C[C@H](C(=O)N2CCOCC2)[C@@]2(CCC3CCCC3)c3[nH]c4cc(-c5ccco5)ccc4c3CCN2C1=O)NCc1cccc(C(F)(F)F)c1" and report it.
Key: inactive

Exercise: Look up outcome of "CCN(CC)CCNC(=O)/C(=C/c1cn(CC)c2ccccc12)NC(=O)c1cc(OC)c(OC)c(OC)c1" and report it.
Key: inactive

###

ASSAY: qHTS for Inhibitors of Cell Surface uPA Generation: FP59 Counterscreen for Cherry-picked Compounds
SETTINGS: FP59 anthrax toxin cytotoxicity counterscreen, cells; series mostly up to 115 µM
Inconclusive results are not listed. Active and inactive are the calls of the source. The call rests on the fitted dose curve; in most records, active means well fitted activation curve with a large enough effect; inconclusive means small, poorly fitted or top-dose-only effect; inactive means flat fitted curve, though single readings scatter.
PARAMETER: outcome

COc1ccc(OC)c(N2C(=O)CC(Cc3cc(C)cc(C)c3)C2=O)c1 (stereo unspecified) | inactive
O=C(CCN1CCN(c2ccccc2F)CC1)Nc1ccc(F)cc1 | inactive
CCCCOc1ccc(S(=O)(=O)N2CCCCC2)cc1 | inactive
CCNC(=S)NNC(=O)c1ccncc1 | inactive
COc1ccc(NC(=O)c2nn(C)c3c2CS(=O)(=O)c2ccccc2-3)cc1 | inactive

Exercise: Look up outcome of "NC(=O)c1cc2ccncc2c2ccccc12" and report it.
Key: inactive

Exercise: Look up outcome of "CN1CCN(C2=Nc3ccccc3Oc3ccc(Cl)cc32)CC1" and report it.
Key: inactive

Exercise: Look up outcome of "COc1ccc2nc(C)cc(Nc3ccccc3O)c2c1" and report it.
Key: inactive

Exercise: Look up outcome of "CS(=O)(=O)c1ccc(Cl)c(NC(=O)COC(=O)CNC(=O)c2cccs2)c1" and report it.
Key: inactive

Exercise: Look up outcome of Cc1ccc(NC2CCCN(C(=O)Cc3nonc3C)C2)cc1C (stereo unspecified) and report it.
Key: inactive

###

ASSAY: qHTS for Inhibitors of Cell Surface uPA Generation: FP59 Counterscreen for Cherry-picked Compounds
SETTINGS: FP59 anthrax toxin cytotoxicity counterscreen, cells; series mostly up to 115 µM
Records with an inconclusive call do not appear. The source made the active and inactive calls. Calls follow the shape of the dose curve; as a rule, active = well fitted activation curve with a large enough effect; inconclusive = small, poorly fitted or top-dose-only effect; inactive = flat fitted curve, though single readings scatter.
Pick from active, inactive when you respond.

COc1ccc(CNCCC2(C(C)C)CCOC(C)(C)C2)cc1 (stereo not given) | inactive

Exercise: Outcome? COc1cccc(C(=O)NCC(c2ccco2)N2CCc3ccccc3C2)c1 (stereo not given)
Key: inactive

Exercise: Outcome? CCC(C)Nc1cc(C)nc2ncnn12 (stereo not given)
Key: inactive

Exercise: Outcome? "Cc1cc(C)n2c(SCC#N)nnc2n1"
Key: inactive

Exercise: Outcome? CCCCCOC(=O)C1=C(C)NC(=O)NC1c1ccccc1 (stereo not given)
Key: inactive

Exercise: Outcome? "CC(=O)NCCc1cnc[nH]1"
Key: inactive

Exercise: Outcome? "COc1ccc(Cc2nnc(Nc3ccc(C)cc3)o2)cc1OC"
Key: inactive
